Sourced from ChEMBL document CHEMBL3286210

assay: AUC in F344 rat at 10 mg/kg, po; type: ADME, organism-based; parameters: dose 10 mg/kg, route oral; details: plasma
recorded_metric: AUC (ng·h/mL)
State just the number; it will be interpreted in ng·h/mL.

Reported AUC, molecule Cc1cccc(C)c1-c1cccc(COc2ccc(CCC(=O)O)cn2)c1 : ____ 2000

* * *

target: Free fatty acid receptor 1 (Rattus norvegicus, UniProt Q8K3T4); experiment: Agonist activity at rat GPR40 expressed in CHO cells by calcium flux assay
Sequence (Q8K3T4 whole entry): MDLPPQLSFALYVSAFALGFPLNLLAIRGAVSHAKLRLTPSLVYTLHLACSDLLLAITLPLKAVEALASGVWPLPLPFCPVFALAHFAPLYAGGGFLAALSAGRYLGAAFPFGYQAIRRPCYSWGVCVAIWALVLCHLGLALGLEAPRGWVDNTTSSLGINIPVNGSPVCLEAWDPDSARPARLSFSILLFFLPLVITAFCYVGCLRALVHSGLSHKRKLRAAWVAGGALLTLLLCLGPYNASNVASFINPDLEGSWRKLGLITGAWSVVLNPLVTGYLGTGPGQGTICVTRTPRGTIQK
recorded_metric: EC50 (nM)
State just the number; it will be interpreted in nM.

Reported EC50, compound Cc1cccc(C)c1-c1cccc(COc2cc3c(cn2)C(CC(=O)O)OC3)c1 (stereo not given) : ____ 190

Reported EC50, compound Cc1cccc(C)c1-c1cccc(COc2ccc(CCC(=O)O)cc2)c1 : ____ 18

Reported EC50, compound Cc1cc(OCc2cccc(-c3c(C)cccc3C)c2)ncc1CCC(=O)O : ____ 130

Reported EC50, compound CCOC(CC(=O)O)c1ccc(OCc2cccc(-c3c(C)cccc3C)c2)nc1 (stereo not given) : ____ 130

Reported EC50, compound O=C(O)CCc1ccc(NCc2cccc(Oc3ccccc3)c2)cc1 : ____ 99
